# assayedTarget: T1, AFP p26 (human, UniProt P02771 381-609)
# T1 construct: The construct used is not described
# T1 sequence: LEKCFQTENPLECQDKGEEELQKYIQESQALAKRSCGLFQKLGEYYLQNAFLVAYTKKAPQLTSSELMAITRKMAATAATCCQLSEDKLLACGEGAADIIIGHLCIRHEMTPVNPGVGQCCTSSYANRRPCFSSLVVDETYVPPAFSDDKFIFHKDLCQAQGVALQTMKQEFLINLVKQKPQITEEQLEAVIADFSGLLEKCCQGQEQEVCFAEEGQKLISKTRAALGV
# testSummary: phage ELISA, A450 target/A450 IgG1-Fc
property: ELISA_avg (ratio)
Answer format: numeric, ratio implied, no suffix.

Input SEQ ID NO 836 (designed binder) MGSWYLFKNELAWIKWRLEALGGSEAELADFEMVIAMFEDHLQEYKGKGNPEVEALRKEAAAIRDELQAYRHN . Output ELISA_avg: 31.1

Input SEQ ID NO 799 (designed binder) MGSWVEFVTRLEAIEDRLFALGGSEAELAAFEKEIAAFESELQAYKGKGNPEVEHLRAHAAHIRHWLQAYRHN . Output ELISA_avg: 11.7

Input SEQ ID NO 821 (designed binder) MGSWFYFKYELAWIKHWLEALGGSEAELASFETHIAFFEHQLQYYKGKGNPEVEALRKEAAAIRDELQAYRHN . Output ELISA_avg: 13.7

Input SEQ ID NO 786 (designed binder) MGSWVEFVSRLYAIDFRLWALGGSEAELAAFEKEIAAFESELQAYKGKGNPEVEALREHAAQIRDWLQAYRHN . Output ELISA_avg: 29

Input SEQ ID NO 803 (designed binder) MGSWSEFYYRLAAIESRLFALGGSEAELAAFEKEIAAFESELQAYKGKGNPEVERLREHAAHIRRWLQAYRHN . Output ELISA_avg: 30.8

Input SEQ ID NO 748 (designed binder) MGSWSEFIFRLDAIHSRLQALGGSEAELAAFEKEIAAFESELQAYKGKGNPEVEYLRFIAAEIRLKLQAYRHN . Output ELISA_avg: 28.3

Input SEQ ID NO 807 (designed binder) MGSWVEFYHRLEAIEQRLMALGGSEAELAAFEKEIAAFESELQAYKGKGNPEVESLREQAAAIRSWLQAYRHN . Output ELISA_avg: 28.5

Input SEQ ID NO 776 (designed binder) MGSWYEFRARLLAIDERLWALGGSEAELAAFEKEIAAFESELQAYKGKGNPEVEHLREHAAHIRNFLQAYRHN . Output ELISA_avg: 20.9

Input SEQ ID NO 784 (designed binder) MGSWTEFVNRLYAIDSRLWALGGSEAELAAFEKEIAAFESELQAYKGKGNPEVEGLRTHAAKIRHWLQAYRHN . Output ELISA_avg: 16.7

Input SEQ ID NO 869 (designed binder) MGSWMVFKQDLAEIKANLEALGGSEAELADFEFAIAWFEYELQWYKGKGNPEVEALRKEAAAIRDELQAYRHN . Output ELISA_avg: 17.8
